For each of the molecules below, state its growth inhibition.
Experiment: NCI Yeast Anticancer Drug Screen. Data for the bub3 strain (AID 167)
Settings: S. cerevisiae bub3 mutant strain, at 33.0 µM, stronger effect = higher value
The panel holds about 79,000 compounds, 15% with a hit somewhere; the sample as a whole holds those more often. Residues, ends and D or L forms follow the SMILES beside them. *: point of attachment. CH2Cl = ClC*
One number for each entry, in %.

[
  {
    "molecule": "Nc1cc(S(N)(=O)=O)ccc1SSc1ccc(S(N)(=O)=O)cc1N",
    "measuredProperty": "growth inhibition",
    "unitInfo": "%",
    "testValue": 21
  }
]

Hi! Can you tell me growth inhibition for each of these molecules?
1. CN(N=O)c1ccc(/C=C/c2ccnc3ccccc23)cc1
2. N#CC(=C1C=CC(=NO)C=C1)c1ccccc1
3. CCn1ncc(N=O)c1N
4. COc1cc([C@@H]2c3cc4c(cc3[C@@H](OC3OC5COC(C)OC5C(O)C3O)[C@H]3COC(=O)[C@H]23)OCO4)cc(OC)c1O (some centres not stated)
5. Cc1ccc2occ/c(=N\Nc3ccccc3)c2c1
6. CNc1nc(C)nc2c1cnn2-c1ccc([N+](=O)[O-])cc1

32
97
64
-12
64
-12

Hi! Can you tell me growth inhibition for each of these molecules?
1. CCOC(=O)CNC(=O)c1[nH]cnc1/N=N/N(C)C
2. CC(=O)NC(CC(C)C)C(=O)NC(Cc1ccccc1)C(=O)CCl (stereo not drawn) (Ac-Leu-Phe-CH2Cl; configuration not given here)
3. Clc1nc(C(Cl)Cl)nc2sc3c(c12)CCCC3
4. O=C1C=CC(=O)N1c1ccc2c(c1)OCO2

[62, 6, 27, 99]

From: PubChem BioAssay (NCI)
